Reference source for all entries: ChEMBL document CHEMBL4334488

# TESTED SYSTEM: Histamine H3 receptor (Homo sapiens, UniProt Q9Y5N1)
# Sequence (Q9Y5N1 whole entry): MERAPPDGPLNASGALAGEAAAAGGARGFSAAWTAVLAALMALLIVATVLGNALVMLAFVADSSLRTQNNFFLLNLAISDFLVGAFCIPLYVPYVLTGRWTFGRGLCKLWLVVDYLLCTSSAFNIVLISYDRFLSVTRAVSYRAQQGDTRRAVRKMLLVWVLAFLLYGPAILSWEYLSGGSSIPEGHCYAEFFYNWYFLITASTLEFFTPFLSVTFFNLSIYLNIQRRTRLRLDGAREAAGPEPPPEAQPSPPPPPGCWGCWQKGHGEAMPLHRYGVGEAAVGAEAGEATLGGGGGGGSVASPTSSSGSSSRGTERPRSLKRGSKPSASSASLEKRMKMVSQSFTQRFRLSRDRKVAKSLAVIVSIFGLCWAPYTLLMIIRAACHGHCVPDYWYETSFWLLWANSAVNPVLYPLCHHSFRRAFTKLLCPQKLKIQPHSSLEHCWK
# EXPERIMENT DESCRIPTION: Displacement of 3 nM [3H]Nalpha-methylhistamine from human H3R expressed in Sf9 cell membranes co-expressing Gia2 and beta1gamma2 by competition binding assay
PROPERTY NAME: log10 of Ki (log10 of the value in nM)

{"columns": ["SMILES REPR", "log10 of Ki"],
 "data": [
  ["CC(C)(C)CNc1nccc(NC2CCNCC2)n1", 3.54],
  ["CC(C)(C)CNc1nccc(N2CCN(C(=N)N)CC2)n1", 3.78],
  ["CN1CCCN(c2ccnc(NCC(C)(C)C)n2)CC1.O=C(O)C(F)(F)F.O=C(O)C(F)(F)F", 3.38],
  ["CC(C)(C)CNc1nccc(N2CC[C@@H](N)C2)n1", 1.14],
  ["CN[C@@H]1CCN(c2ccnc(NCC(C)(C)C)n2)C1", 1.44],
  ["CC(C)(C)CNc1nccc(N2CC[C@@H](NC(=N)N)C2)n1.O=C(O)C(F)(F)F.O=C(O)C(F)(F)F", 3.05]
]}
